System: P12-Ichikawa
Assay explanation: cell viability relative to DMSO control; higher = less cytotoxic
Test context: RPMI 5 mM glucose + 10% FBS; 48 h; 15.4 µM
Friendly reminder: cell viability below 30% is Yes, at or above is No.

These solved cases illustrate the format of a correct answer.
Cc1cccc(Nc2ccncc2[S+](=O)([O-])NC(=O)NC(C)C)c1 = No
COC1=C(OCCCN2CCOCC2)C=CC\3=C1/N=C(/NC(=O)C4=CN=C(N)N=C4)N5CC/N=C35 = No
Nc1ncnc2c1ncn2[C@@H]1O[C@H](CO)C[C@H]1O = No

Does `CNC(=O)c1ccc(Nc2cc(Nc3ccccc3[S+](=O)([O-])C(C)C)c3cc[nH]c3n2)nc1` have cell viability strictly under 30%? Yes

###

Test system: NOMO1
Assay explanation: cell viability relative to DMSO control; higher = less cytotoxic
Test context: RPMI 5 mM glucose + 10% FBS; 48 h; 0.000781 µM
The following compounds are shown together with reported cell viability values.
Reply numerically in %, unit not repeated.

Guide cases for cell viability, answers given:
COc1c(C)c2c(c(O)c1C/C=C(\C)CCC(=O)O)C(=O)OC2 = 101
CCOC(=O)C(C)OC1=CC=CC2=C1\C=C/N(CC(=O)NC3=CC=C4OCCOC4=C3)C2=O (centres undefined) = 81.7
C=CC(=O)Nc1cc2c(Nc3ccc(F)c(Cl)c3)ncnc2cc1OCCCN1CCOCC1 = 123
Cc1cc2c(C(N)=O)cccc2n1-c1nc2c(c(NCc3ccccc3)n1)COCC2 = 89.3
CC(C)c1cc(C(C)C)c(CC(=O)N[S+](=O)([O-])Oc2c(C(C)C)cccc2C(C)C)c(C(C)C)c1 = 96.3
C[C@]12CC[C@H]3[C@@H](CCC4=CC(=O)CC[C@@H]43)[C@@H]1CC[C@@H]2OC(=O)CCc1ccccc1 = 126
O=C(O)CCNC(=O)c1ccc(/N=N/c2ccc(O)c(C(=O)O)c2)cc1 = 106
Cc1cccc(Nc2ccncc2[S+](=O)([O-])NC(=O)NC(C)C)c1 = 95.6

Consider the additional compound presented here.
Entry under review: O=C(CCCN1CCN(c2ccc(F)cc2)CC1)NC1c2ccccc2CSc2ccccc21 (centres undefined) . Reported cell viability? 135

###

The following molecules are shown together with reported cell viability values.
Tested on: NOMO1
Assay explanation: cell viability relative to DMSO control; higher = less cytotoxic
Test context: RPMI 5 mM glucose + 10% FBS; 48 h; 0.0211 µM
Reply numerically in %, unit not repeated.

COC(=O)C\1=C(C)\N\C(=C(/C1C2=CC=CC3=NON=C23)C(=O)OC(C)C)C (stereo not drawn) = 99.3
C=CC(=O)Nc1cc2c(Nc3ccc(F)c(Cl)c3)ncnc2cc1OCCCN1CCOCC1 = 124
CCCCN(CCCC)CC(O)c1cc(Cl)cc2c1-c1ccc(Cl)cc1/C2=C/c1ccc(Cl)cc1 (stereo not drawn) = 87.1
CC12CC3CC(C)(C1)CC(N)(C3)C2 = 113
N[C@@H]1CONC1=O = 91.6
CNCC[C@H](Oc1cccc2ccccc12)c1cccs1 = 116
CC(C)c1cc(C(C)C)c(CC(=O)N[S+](=O)([O-])Oc2c(C(C)C)cccc2C(C)C)c(C(C)C)c1 = 82.8

Kindly state the measured cell viability obtained for `COc1cc[nH]c2ncc(C(=O)C(=O)N3CCN(C(=O)c4ccccc4)C[C@H]3C)c1-2` with NOMO1. 101

###

System: SEM cells
Assay explanation: cell viability relative to DMSO control; higher = less cytotoxic
Test context: HPLM + 10% dialyzed FBS; 48 h; 0.19 µM
Measured attribute: cell viability (%)
Reply numerically in %, unit not repeated.

Guide cases for cell viability, answers given:
COc1c(C)c2c(c(O)c1C/C=C(\C)CCC(=O)O)C(=O)OC2 = 100
COc1cccc2c1C(=O)c1c(O)c3c(c(O)c1C2=O)C[C@@](O)(C(=O)CO)C[C@@H]3O[C@H]1C[C@H](N)[C@H](O)[C@H](C)O1 = 92.4
COC1=CC=C(C(=C1)OC(C)C)C/2=N/[C@@H]([C@@H](N2C(=O)N3CCNC(=O)C3)C4=CC=C(Cl)C=C4)C5=CC=C(Cl)C=C5 = 56.5
O=C(O)C(=O)c1cn(Cc2ccccc2)c2ccc(-c3ccc(OC(F)(F)F)cc3)cc12 = 108
O=C(O)c1cccnc1Nc1cccc(C(F)(F)F)c1 = 117

Entry under review: `CCCN1CCO[C@@H]2c3cc(O)ccc3OC[C@H]21` . Reported cell viability? 118

And COC(=O)C\1=C(C)\N\C(=C(/C1C2=CC=CC3=NON=C23)C(=O)OC(C)C)C (stereo unspecified) ? 100

And `Cc1ccc([S+](=O)([O-])OCC(=O)Nc2ccc(C(=O)O)c(O)c2)cc1` ? 106

And `NC(=O)c1ccc(N(C(N)=O)c2c(F)cccc2F)nc1-c1ccc(F)cc1F` ? 94

And `CCCNC(=O)Nc1ccc(Oc2ncnc3cc(OC)c(OC)cc23)cc1Cl` ? 101

And `COC(=O)c1ccc2c(c1)NC(=O)/C2=C(\Nc1ccc(N(C)C(=O)CN2CCN(C)CC2)cc1)c1ccccc1` ? 50.9

###

The following molecules are shown together with reported cell viability values.
System: SEM cells
Assay explanation: cell viability relative to DMSO control; higher = less cytotoxic
Test context: RPMI 5 mM glucose + 10% FBS; 48 h; 0.0211 µM
Enter the number, and then the unit.

O=C(O)c1cccnc1Nc1cccc(C(F)(F)F)c1 = 106%
COc1ccc2c(c1)[C@]13CCCCC1C(C2)N(C)CC3 (stereo partly drawn) = 115%

Consider the additional molecule presented here.
Entry under review: CC(N[C@H]1CCCC[C@@H]1NC(=O)c1ccc(Cl)cc1)c1cccc2ccccc12 (stereo partly drawn) . Reported cell viability? 120%

###

The following compounds are shown together with reported cell viability values.
Test system: NOMO1
Assay explanation: cell viability relative to DMSO control; higher = less cytotoxic
Test context: RPMI 5 mM glucose + 10% FBS; 48 h; 0.0211 µM
Reply numerically in %, unit not repeated.

Guide cases for cell viability, answers given:
Nc1ncnc2c1ncn2[C@@H]1O[C@H](CO)C[C@H]1O = 87.9
Cc1coc2c1C(=O)C(=O)c1c-2ccc2c1CCCC2(C)C = 104

Entry under review: `COc1c(C)c2c(c(O)c1C/C=C(\C)CCC(=O)O)C(=O)OC2` . Reported cell viability? 94.4

###

System: NOMO1
Assay explanation: cell viability relative to DMSO control; higher = less cytotoxic
Test context: RPMI 5 mM glucose + 10% dialyzed FBS; 48 h; 46.1 µM
Measured attribute: cell viability
Enter the number, and then the unit.

O=C(O)c1cccnc1Nc1cccc(C(F)(F)F)c1 = 106%
CC[C@H]1OC(=O)[C@H](C)C(=O)[C@H](C)[C@@H](O[C@H]2O[C@H](C)C[C@H](N(C)C)[C@H]2O)[C@](C)(OC)C[C@@H](C)C(=O)[C@H](C)[C@H]2N(CCCCn3cnc(-c4cccnc4)c3)C(=O)O[C@]12C = 95.9%
O=C(O)c1cc(/N=N/c2ccc([S+](=O)([O-])Nc3ccccn3)cc2)ccc1O = 102%
CCCCCCCCCCCCCC(=O)N[C@H](CO)[C@H](O)c1ccc([N+](=O)[O-])cc1 = 2.14%
Cc1cc2c(C(N)=O)cccc2n1-c1nc2c(c(NCc3ccccc3)n1)COCC2 = 2.84%
O=C(CCCN1CCN(c2ccc(F)cc2)CC1)NC1c2ccccc2CSc2ccccc21 (centres undefined) = 58%

Kindly state the measured cell viability obtained for `NC(=O)c1ccc(N(C(N)=O)c2c(F)cccc2F)nc1-c1ccc(F)cc1F` with NOMO1. 94.3%

And `CCCNC(=O)Nc1ccc(Oc2ncnc3cc(OC)c(OC)cc23)cc1Cl` ? 70.5%

And `Cc1cccc(Nc2ccncc2[S+](=O)([O-])NC(=O)NC(C)C)c1` ? 65.8%

And OCC(O)C(O)C(O)CO (centres undefined) ? 94.6%

And `C[C@]12CC[C@H]3[C@@H](CCC4=CC(=O)CC[C@@H]43)[C@@H]1CC[C@@H]2OC(=O)CCc1ccccc1` ? 68.7%

And `Nc1ccc([S+](=O)([O-])Nc2ccnn2-c2ccccc2)cc1` ? 101%

And `Cc1ccc([S+](=O)([O-])OCC(=O)Nc2ccc(C(=O)O)c(O)c2)cc1` ? 122%

And `CN(C)CC(C)(C)CNc1nn2c(-c3ccccc3)nnc2cc1C1CCC1` ? 27.7%

And `COC(=O)c1ccc2c(c1)NC(=O)/C2=C(\Nc1ccc(N(C)C(=O)CN2CCN(C)CC2)cc1)c1ccccc1` ? 98.5%

And `O=P(O)(O)C(O)(Cn1ccnc1)P(=O)(O)O` ? 104%

And `Nc1c2c(nc3ccccc13)CCCC2` ? 19.2%

And `Cc1coc2c1C(=O)C(=O)c1c-2ccc2c1CCCC2(C)C` ? 93.1%

And `COc1cccc2c1C(=O)c1c(O)c3c(c(O)c1C2=O)C[C@@](O)(C(=O)CO)C[C@@H]3O[C@H]1C[C@H](N)[C@H](O)[C@H](C)O1` ? 5.09%
